# testedSystem: Shiga toxin 2 (Escherichia coli O157:H7) (UniProt P09385+P09386)
# measurementNotes: E. coli 0.157:H7 Shiga Toxin SOP - stx2 screening assay
# Type: functional
# Design: scale not given: direction of the effect not stated beside the values
# conditionParameters: 30 µM

{"compound": "COc1ccc(CN2C[C@H]3CC[C@](O)(c4ccc(C)cn4)[C@H]3C2)c(F)c1", "Percent Effect / %": 14.7}
{"compound": "Cc1nc(C)c(CC(=O)N2C[C@H]3CC[C@@H]2CN(C(=O)N(C)C)C3)c(=O)[nH]1", "Percent Effect / %": -13.6}
{"compound": "CN(C)C(=O)N1CCOCC2(CCN(c3ccccn3)C2)C1 (stereo not given)", "Percent Effect / %": -15.4}
{"compound": "CN(Cc1cccc(F)c1)S(=O)(=O)N1CCOCC1", "Percent Effect / %": 3.45}
{"compound": "O=C1CC(c2ccncc2)C2(CCN(C(=O)c3ccc[nH]3)CC2)N1 (stereo not given)", "Percent Effect / %": -8.09}

###

Examples of compounds with documented Percent Effect follow.
# testedSystem: Shiga toxin 2 (Escherichia coli O157:H7) (UniProt P09385+P09386)
# measurementNotes: E. coli 0.157:H7 Shiga Toxin SOP - stx2 screening assay
# Type: functional
# Design: scale not given: direction of the effect not stated beside the values
# conditionParameters: 30 µM

{"compound": "Cc1ncc(CN2Cc3ccccc3O[C@]3(CC[C@H](CO)CC3)C2)cn1", "testedSystem": "Shiga toxin 2 (Escherichia coli O157:H7) (UniProt P09385+P09386)", "Percent Effect, %": 18.1}
{"compound": "CN(CC(=O)NCc1ccccn1)CC1CCCN1c1cccnn1 (stereo unspecified)", "testedSystem": "Shiga toxin 2 (Escherichia coli O157:H7) (UniProt P09385+P09386)", "Percent Effect, %": -17.5}
{"compound": "CCCn1[nH]cc/c1=N\\C(=O)CN1CCOC(Cn2cc(C)cn2)C1 (stereo unspecified)", "testedSystem": "Shiga toxin 2 (Escherichia coli O157:H7) (UniProt P09385+P09386)", "Percent Effect, %": 8.34}
{"compound": "COC(=O)c1sccc1NC(=O)C1CCCN1C(=O)c1ccco1 (stereo unspecified)", "testedSystem": "Shiga toxin 2 (Escherichia coli O157:H7) (UniProt P09385+P09386)", "Percent Effect, %": -12.3}
{"compound": "O=C1CC(c2ccc(C(=O)O)cc2)c2ncn(-c3cccc(F)c3)c2N1 (stereo unspecified)", "testedSystem": "Shiga toxin 2 (Escherichia coli O157:H7) (UniProt P09385+P09386)", "Percent Effect, %": -17.3}
{"compound": "O=C(C1CCCCC1)N1CCC2(CCCN2CC2CC2)CC1", "testedSystem": "Shiga toxin 2 (Escherichia coli O157:H7) (UniProt P09385+P09386)", "Percent Effect, %": -6.44}

###

# testedSystem: Shiga toxin 2 (Escherichia coli O157:H7) (UniProt P09385+P09386)
# measurementNotes: E. coli 0.157:H7 Shiga Toxin SOP - stx2 screening assay
# Type: functional
# Set-up: scale not given: direction of the effect not stated beside the values
# conditionParameters: 30 µM
The entries below are paired with their reported Percent Effect.
quantityMeasured: Percent Effect (%)

{"compound": "CN(C)c1ccc(C(=O)NCC2(c3ccccc3)CCOCC2)cc1", "valueUnits": "%", "valueObserved": -24.7}
{"compound": "COc1ccc2c(c1)CN(Cc1nc3c(cnn3C)c(=O)[nH]1)CC2", "valueUnits": "%", "valueObserved": -3.66}
{"compound": "Cc1ccc(C(=O)NS(=O)(=O)c2cc(Cl)ccc2Cl)c(=O)[nH]1", "valueUnits": "%", "valueObserved": -9.88}
{"compound": "COCCO[C@H]1CCN(C(=O)C2CCOCC2)[C@H]1Cc1ccncc1", "valueUnits": "%", "valueObserved": -17.6}
{"compound": "Cc1nn(C)c(C)c1C1CCCN1Cc1nc(C)c2ccccc2n1 (stereo unspecified)", "valueUnits": "%", "valueObserved": 10.8}
{"compound": "O=C(c1cnoc1)N1CCC[C@]2(C[C@H](Oc3ncccc3F)CO2)C1", "valueUnits": "%", "valueObserved": -8.52}
